Give measured TGI for each item. Keep answers brief.
Test system: MDA-N
ASSAY SUMMARY: NCI tumour cell line growth inhibition, 48 h

Using the record for O=c1[nH]c(=O)c2c([nH]1)[nH]c1ccc(Br)cc12 , report its TGI.
> 100 µM

Input CSc1c(C#N)c(=O)n(N)c2c1c(C)nn2-c1ccccc1
> 100 µM

Input CC(=O)OCC1OC(n2c(C)c(C(C)=O)c(-c3ccco3)c(C#N)c2=S)C(OC(C)=O)C(OC(C)=O)C1OC(C)=O (configuration not stated)
> 100 µM

Input CNC(=O)ON(C(C)=O)C(=O)NC
73.6 µM

Input Cc1ccc2[nH]c3c(c(=O)n(C)c(=O)n3C)c2c1
> 100 µM

Input Clc1sc(Cl)c2c1[C@H](Cl)C[C@@H]2Cl
64.5 µM

Input Cc1[nH]c(C)c(CN(C)C)c1CN(C)C
> 100 µM

---

Tested on: HL-60(TB) leukemia
ASSAY SUMMARY: NCI tumour cell line growth inhibition, 48 h
ENDPOINT: TGI (µM)
# number only, unit µM dropped from output

Using the record for CC(=O)[O-].CC(=O)[O-].O=C(N/N=C/c1cc(Cl)cc(Cl)c1[OH2+])c1ccncc1.[Mn+2] , report its TGI.
1.12

Input CCN1CCN(c2nc(C)cc(NCc3cc(Nc4ccnc5cc(Cl)ccc45)ccc3F)n2)CC1
4.55

---

Test system: RXF 393 renal
ASSAY SUMMARY: NCI tumour cell line growth inhibition, 48 h; in the data active means GI50 below about 0.43 µM; inactive means the rest
Outcome field: choose from 1 for active, -1 for inactive

Assay result, entry Cn1c(CCCC(=O)O)nc2cc(N(CCCl)CCCl)ccc21 — outcome?
-1

Input COc1cc(C(=O)/C=C/c2cc(-c3ccc4c(c3)OCO4)n[nH]2)cc(OC)c1OC
-1

Input CC[C@@H](C)/C=C(C)/C=C/C(=O)c1c(O)c(-c2ccc(OC(=O)[C@@]34CC[C@@](C)(C(=O)O3)C4(C)C)cc2)cn(O)c1=O
-1

Input CN1CCC2(CC1)N=C(SCC(=O)Nc1cnc3ccccc3c1)C(c1ccc(Br)cc1)=N2
-1

Input C[C@@H](Nc1cc(F)cc(F)c1)c1cc(C(=O)N(C)C)cc2c(=O)cc(N3CCOCC3)oc12
1

Input O=C(/C=C/c1ccccc1)c1cccc2ccccc12
-1

Input Cc1nc2sc(C(=O)Nc3cccc(Br)c3C)c(N)c2cc1C(O)c1ccccc1 (centres undefined)
1

Input COC(=O)C1C(C(=O)O)C2(c3ccccc3)C(=O)C1(c1ccccc1)C(c1ccccc1)=C2c1ccccc1 (centres undefined)
-1

Input C=C1c2nc3ccccc3n2C=C(c2cccc(Cl)c2)N1Cc1ccc(OC)cc1
-1

Input Cc1ccc(C[As+](c2ccccc2)(c2ccccc2)c2ccccc2)cc1
-1

Input Nc1[nH]nc2nc(-c3cc(Cl)ccc3Cl)cc(-c3ccc(F)cc3)c12
-1

Input COc1cccc(Nc2ncnc3cc(NC(=O)CCl)ccc23)c1
-1

Input Oc1ccc2c(=S)cc(-c3ccc(Br)cc3)oc2c1O
-1

Input CCN(CC)CCNC(=O)c1cccc2c1-c1ccccc1C2=O
-1

---

Test system: RPMI-8226 leukemia
ASSAY SUMMARY: NCI tumour cell line growth inhibition, 48 h
ENDPOINT: TGI

Using the record for S=C1NC2=C(CSC/C2=C\c2ccc(Cl)cc2)C(c2ccc(Cl)cc2)N1 (stereo not given) , report its TGI.
94.5 µM

Input C=C1N(S(=O)(=O)c2ccc(C)cc2)C(=O)OCC12CCCC2
> 100 µM

Input O=C(O)c1ccc2c(c1)C(=O)N(c1ccc(S(=O)(=O)c3ccc(N4C(=O)c5ccc(C(=O)O)cc5C4=O)cc3)cc1)C2=O
> 100 µM

Input N#C/C(=C\c1cc(O)c(O)c(O)c1)C(N)=O
> 100 µM

Input C/C(=C\COP(=O)(O)OP(=O)(O)O)CCCCCCOCc1ccccc1
> 100 µM

Input CCCCC(=O)/C=c1/cc(C)[nH]c2cccc3cnn1c32
> 100 µM

Input Cc1ccc(/C=N/NC(=O)c2ccccc2Oc2ccccc2)o1
> 88.4 µM

Input Cc1cc(N2CCOCC2)nc2ccc(Cc3ccc4nc(N5CCOCC5)cc(C)c4c3)cc12
> 100 µM

Input Nc1ccccc1C#C/C=C\C#Cc1ccccc1C#CCO
> 50 µM

Input Cc1cccc(C)c1NC(=O)CCC(=O)NC(N)=NC#N
> 100 µM

---

Test system: SK-MEL-28 melanoma
ASSAY SUMMARY: NCI tumour cell line growth inhibition, 48 h
ENDPOINT: TGI

Kindly state the measured TGI obtained for O=C(Nc1nc(-c2ccc(Cl)cc2)cs1)c1cc(O)c(O)c(O)c1 with SK-MEL-28 melanoma.
> 5000 µM

Input Cc1ccc(Nc2cccc3c2C(=O)c2cccc(Nc4ccc(C)cc4S(=O)(=O)O)c2C3=O)c(S(=O)(=O)O)c1
> 100 µM

Input CCc1nc(C)cn1C(=O)OCc1nc2nc(Cl)nc(N3CCOCC3)c2[nH]1
3.2 µM

Input N#Cc1c2ccccc2c(Cc2ccc3c(c2)OCCOCCOCCOCCOCCO3)c2ccccc12
19.4 µM

Input CSc1c(C#N)c(=O)n(N)c2c1c(C)nn2-c1ccccc1
> 100 µM

Input Cn1c(=O)c2ccccc2[n+]2c(-c3cccc([N+](=O)[O-])c3)csc12
> 100 µM

---

Give measured TGI for each item. Keep answers brief.
System: M14 melanoma
ASSAY SUMMARY: NCI tumour cell line growth inhibition, 48 h
Where a SMILES comes first, the peptide text is derived from it. [ ]: non-standard residue; d: D form. The star is where a group is joined. NMeF = CN[CH](Cc1ccccc1)C(=O)O; NMeV = CN[CH](C(=O)O)C(C)C; Boc = CC(C)(C)OC(=O)*; OBn = c1ccc(CO*)cc1

Using the record for CN(c1ccccc1)c1cc2ccccc2nn1 , report its TGI.
> 100 µM

Input COc1ccc(N2C(=O)C(Cl)C2c2cc3cc(Br)ccc3nc2Cl)cc1 (configuration not stated)
11 µM

Input CC(Br)CN1CCOCC1 (configuration not stated)
> 100 µM

Input COc1ccc(-c2sc(Br)c3c2C(=O)C2OC(=O)NC32)cc1OC (configuration not stated)
> 100 µM

Input O=C1c2ccccc2C(=O)N1CCCOCc1c[nH]c(=O)[nH]c1=O
> 100 µM

Input Cc1[nH]c(C)c(CN(C)C)c1CN(C)C
> 100 µM

Input CC(C)C(NC(=O)OC(C)(C)C)C(=O)N(C)C(Cc1ccccc1)C(=O)N(C)C(C(=O)OCc1ccccc1)C(C)C (stereo not drawn) (Boc-Val-[NMeF]-[NMeV]-OBn; configuration not given here)
> 100 µM

Input O=C1C=C(NCCO)c2nccc3c2c1nc1ccccc13
58.7 µM

Input CC(=O)OC1CCC2OOC1O2 (configuration not stated)
> 100 µM

Input Nc1nc(SCC(=O)c2ccccc2)c2[nH]cnc2n1
> 100 µM

Input O=C(Nc1nc(-c2ccc(Cl)cc2)cs1)c1cc(O)c(O)c(O)c1
4610 µM

Input CNC(=O)ON(C(C)=O)C(=O)NC
41 µM

---

System: SK-MEL-5 melanoma
ASSAY SUMMARY: NCI tumour cell line growth inhibition, 48 h
ENDPOINT: GI50

Kindly state the measured GI50 obtained for CCN(CC)CCNC(=O)c1cccc2c1-c1ccccc1C2=O with SK-MEL-5 melanoma.
> 100 µM

Input C=C1C(=O)O[C@H]2[C@H]1CC/C(COC(=O)c1cccnc1N)=C\CC[C@@]1(C)O[C@@H]21
2.9 µM

Input Cn1c(CCCC(=O)O)nc2cc(N(CCCl)CCCl)ccc21
> 71.6 µM

Input CC1=CC(=O)N(c2cccc3c(N4C(=O)C=C(C)C4=O)cccc23)C1=O
15.5 µM

Input c1ccc(-c2[nH]ncc2-c2ccnc(-c3ccc(OCCN4CCOCC4)cc3)c2)nc1
> 25 µM

---

Give measured TGI for each item. Keep answers brief.
Test system: 786-0 renal
ASSAY SUMMARY: NCI tumour cell line growth inhibition, 48 h
# number only, unit µM dropped from output

Kindly state the measured TGI obtained for N#Cc1c(Cl)cc(C#N)n2c1nc1ccccc12 with 786-0 renal.
7.08

Input O=C(/C=C/c1ccccc1)c1cccc2ccccc12
7.25

Input Brc1ccccc2cc(-c3ccccc3)nc1-2
10.8

Input CCN1CCN(c2nc(C)cc(NCc3cc(Nc4ccnc5cc(Cl)ccc45)ccc3F)n2)CC1
3.13

Input O=C1/C(=C\c2ccc(F)cc2)CN(C(=O)c2ccccc2F)C/C1=C\c1ccc(F)cc1
3.17

---

Test system: M19-MEL melanoma
ASSAY SUMMARY: NCI tumour cell line growth inhibition, 48 h
ENDPOINT: TGI (µM)
# number only, unit µM dropped from output

Using the record for C=C1CC(OC)(C(OC)C(=O)N[C@H]2OCO[C@H]3C2O[C@H](C[C@@H](COC)OC)C(C)(C)C3OC)O[C@H](C)[C@@H]1C (stereo partly specified) , report its TGI.
5.93

Input Cc1cc(O)c2c(c1)C(=O)c1c(c(O)cc(O)c1-c1c(O)cc(O)c3c1C(=O)c1cc(C)cc(O)c1C3=O)C2=O
59.4

Input CC(C)c1oc(=O)cc2c1C(O)C1OC(=O)C3(C)C(O)C4OC4C2(C)C13 (stereo unspecified)
7.75
